// abundance fitness lookup, one value per entry
B1: Formin-binding protein 4, residues 200 to 261; numbered along this chain, Q8N3X1 (parent)
chain: SGWQYDTQCSLAGVGIEMGDWQEVWDENTGCYYYWNTQTNEVTWELPQYLATQVQGLQHYQP

- Variants of: B1
- Method Notes: abundance fitness (aPCA) (normalised: wild type 0, dead -1); higher = more abundant; growth selection in yeast, the domain comes from the species named
- Measurement Conditions: Homo sapiens
Reply briefly: the number, and no unit.

Known abundance fitness results, listed for orientation:
Sequence Code: SGWQYDTQCSLAGVGIEMGDWQEVWDENTGCYYYWNTQTNEVTWELPQYLATQVQILQHYQP [G56I]
Quantitative Result: -0.425
--
Sequence Code: SGWQYDTQCSLAGVGIEMGDWQEVWDENTGCYYYWNHQTNEVTWELPQYLATQVQGLQHYQP [T37H]
Quantitative Result: -0.009

Can you look up the measured abundance fitness of SGWQYDTQCSLAGVGIEMGDWQEVWDENTGCYRYWNTQTNEVTWELPQYLATQVQGLQHYQP [Y33R] for me?
-0.201
